test system: NCI-H292 lung cancer cells; assay: FDA drug screening, complete media vs cholesterol-free media without statin (TABLE 1); assay type: cell-based, human; settings: NCI-H292 cells, cholesterol-free media without statin
Structures can show the parent of a compound that is named as a salt.
reportedProperty: Cholesterol-free

>>> experimentalvalue("CNCCC(Oc1ccc(C(F)(F)F)cc1)c1ccccc1 (centres unmarked) [Fluoxetine (hydrochloride)]")
1.383
>>> experimentalvalue("C[C@@H](O)[C@H]1C(=O)N2C(C(=O)O)=C(S[C@@H]3CN[C@H](CNS(N)(=O)=O)C3)[C@H](C)[C@H]12 [Doripenem (monohydrate)]")
1.011
>>> experimentalvalue("CN(C)CCCOc1nn(Cc2ccccc2)c2ccccc12 [Benzydamine (hydrochloride)]")
1.444
>>> experimentalvalue("CC1CC(OC(=O)C(O)c2ccccc2)CC(C)(C)C1 (centres unmarked) [Cyclandelate]")
1.162
>>> experimentalvalue("CNC(=O)c1ccc(N2C(=S)N(c3cnc(C#N)c(C(F)(F)F)c3)C(=O)C23CCC3)cc1F [Apalutamide]")
1.195
>>> experimentalvalue("C(=C\\c1ccccc1)/CN1CCN(C(c2ccccc2)c2ccccc2)CC1 [Cinnarizine]")
1.344
>>> experimentalvalue("CCC(=O)NS(=O)(=O)c1ccc(-c2c(-c3ccccc3)noc2C)cc1 [Parecoxib]")
0.9171
>>> experimentalvalue("CC(C(=O)O)c1ccc(C(=O)c2cccs2)cc1 (centres unmarked) [Suprofen]")
1.108
